# experimental target: T1, human tenascin-C rCd4-His-FBG (rat; human, UniProt P05540 207-392, limits assumed)
# T1 construct: domain: domains 3 and 4; C-terminal FBG fusion; biotinylated in the ELISA and HTRF screens; also called Hu TNC; human TNC rCd4-His-FBG; not shown: 6His tag
# T1 sequence (chain (part 1 of 2)): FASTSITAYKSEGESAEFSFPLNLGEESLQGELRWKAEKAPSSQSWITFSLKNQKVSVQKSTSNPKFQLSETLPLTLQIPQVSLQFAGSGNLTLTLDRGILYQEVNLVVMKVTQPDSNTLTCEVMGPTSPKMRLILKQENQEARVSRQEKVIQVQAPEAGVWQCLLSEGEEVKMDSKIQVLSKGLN
# T1 sequence (chain (part 2 of 2)): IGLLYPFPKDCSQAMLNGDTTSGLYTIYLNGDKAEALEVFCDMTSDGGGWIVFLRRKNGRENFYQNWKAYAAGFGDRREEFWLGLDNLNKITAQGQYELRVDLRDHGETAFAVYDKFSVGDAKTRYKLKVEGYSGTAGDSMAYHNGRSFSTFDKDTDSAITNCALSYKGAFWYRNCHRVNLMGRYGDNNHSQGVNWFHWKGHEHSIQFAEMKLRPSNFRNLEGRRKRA
# experimental details: SPR, captured purified IgG4, 37 C
measure name: log10 koff (log10 of the value in s⁻¹)
Friendly reminder: values = log10 of koff, unit s⁻¹.

Some binders with recorded log10 koff:
2A5 human IgG4 (antibody, V domains shown, human IgG4 with hinge S241P; also called 2A5 parent) VH: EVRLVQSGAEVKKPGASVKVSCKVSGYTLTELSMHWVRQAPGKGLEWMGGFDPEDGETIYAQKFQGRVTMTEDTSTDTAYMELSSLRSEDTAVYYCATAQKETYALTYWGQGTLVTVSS VL: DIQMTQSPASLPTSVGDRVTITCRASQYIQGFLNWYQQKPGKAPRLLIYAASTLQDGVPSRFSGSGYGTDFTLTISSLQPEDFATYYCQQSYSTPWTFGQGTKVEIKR : -1.49
165_13_B1 human IgG4 (antibody, V domains shown, human IgG4 with hinge S241P) VH: QVQLVESGGGLVQPGRSLRLSCAASGFTFDDYAMHWVRQAPGKGLEWVSGISGSGGSTYYADSVKGRFTISRDNAKNSLYLQMNSLRAEDTALYYCAKVMSSMEDAFDIWGQGTMVTVSS VL: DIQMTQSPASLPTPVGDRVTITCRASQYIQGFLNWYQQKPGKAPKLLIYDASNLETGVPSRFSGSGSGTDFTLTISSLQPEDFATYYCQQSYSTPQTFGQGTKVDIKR : -2.73
B12 human IgG4 (antibody, V domains shown, human IgG4 with hinge S241P; also called B12 parent; B12-hIgG4) VH: QVQLVESGGGLVQPGRSLRLSCAASGFTFDDYAMHWVRQAPGKGLEWVSGISGSGGSTYYADSVKGRFTISRDNAKNSLYLQMNSLRAEDTALYYCAKDISAVPDTFDIWGQGTMVTVSS VL: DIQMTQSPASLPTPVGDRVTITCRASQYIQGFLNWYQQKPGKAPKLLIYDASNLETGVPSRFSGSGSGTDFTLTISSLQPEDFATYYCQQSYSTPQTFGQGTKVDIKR : -2.95
160_01_A4 human IgG4 (antibody, V domains shown, human IgG4 with hinge S241P; also called Antibody 160 01 A4 (derived from 2A5)) VH: EVRLVQSGAEVKKPGASVKVSCKVSGYTLTELSMHWVRQAPGKGLEWMGGFDPEDGETIYAQKFQGRVTMTEDTSTDTAYMELSSLRSEDTAVYYCATAQKETLGNAIWGQGTLVTVSS VL: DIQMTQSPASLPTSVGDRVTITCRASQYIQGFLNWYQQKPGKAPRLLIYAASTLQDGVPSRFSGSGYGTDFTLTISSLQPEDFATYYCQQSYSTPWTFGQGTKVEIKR : -3.30

Pending binder:
log10 koff recorded for this binder, 165_13_C3 human IgG4 (antibody, V domains shown, also called IgG4 C3; C3 IgG4 MAb) VH: QVQLVESGGGLVQPGRSLRLSCAASGFTFDDYAMHWVRQAPGKGLEWVSGISGSGGSTYYADSVKGRFTISRDNAKNSLYLQMNSLRAEDTALYYCAKSYQSDEDAFDIWGQGTMVTVSS VL: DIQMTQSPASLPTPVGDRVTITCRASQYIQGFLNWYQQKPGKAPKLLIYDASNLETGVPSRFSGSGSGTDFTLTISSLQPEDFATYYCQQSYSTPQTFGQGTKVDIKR , is -3.08
